- tested_target: Kappa-type opioid receptor (Cavia porcellus, UniProt P41144)
- Sequence (P41144 whole entry): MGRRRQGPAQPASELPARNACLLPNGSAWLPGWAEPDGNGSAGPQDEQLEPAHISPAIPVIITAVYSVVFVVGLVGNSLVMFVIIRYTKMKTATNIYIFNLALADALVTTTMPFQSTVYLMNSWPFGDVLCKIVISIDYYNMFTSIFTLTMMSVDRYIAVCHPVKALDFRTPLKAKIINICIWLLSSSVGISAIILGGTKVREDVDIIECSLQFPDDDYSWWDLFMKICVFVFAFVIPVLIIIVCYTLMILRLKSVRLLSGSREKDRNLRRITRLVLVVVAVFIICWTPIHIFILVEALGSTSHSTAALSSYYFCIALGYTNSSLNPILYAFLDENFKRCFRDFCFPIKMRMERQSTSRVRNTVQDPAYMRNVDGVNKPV
- assay_summary: Binding affinity towards kappa-opioid receptor by displacement of [3H]-EKC at from guinea pig cortical tissue
Quick reference: pKi of the listed items.
The read-out pKi is expressed as -log10 of concentration in moles per litre.

QUERY: Notebook: pull reported pKi for Kappa-type opioid receptor (Cavia porcellus, UniProt P41144), entry C[C@H]1CN(CCCc2ccsc2)CC[C@@]1(C)c1cccc(O)c1
RESULT: 8.00

QUERY: Notebook: pull reported pKi for Kappa-type opioid receptor (Cavia porcellus, UniProt P41144), entry C[C@H]1CN(Cc2ccco2)CC[C@@]1(C)c1cccc(O)c1
RESULT: 7.15

QUERY: Notebook: pull reported pKi for Kappa-type opioid receptor (Cavia porcellus, UniProt P41144), entry C[C@H]1CN(CCC(=O)c2ccccc2)CC[C@@]1(C)c1cccc(O)c1 (stereo in doubt; 6)
RESULT: 6.68

QUERY: Notebook: pull reported pKi for Kappa-type opioid receptor (Cavia porcellus, UniProt P41144), entry C[C@H]1CN(CCC(O)c2ccccc2)CC[C@@]1(C)c1cccc(O)c1 (some centres undefined)
RESULT: 7.90

QUERY: Notebook: pull reported pKi for Kappa-type opioid receptor (Cavia porcellus, UniProt P41144), entry C[C@H]1CN(CCC(=O)c2ccccc2)CC[C@@]1(C)c1cccc(O)c1 (stereo in doubt; 8)
RESULT: 6.79

QUERY: Notebook: pull reported pKi for Kappa-type opioid receptor (Cavia porcellus, UniProt P41144), entry Cc1ccccc1CCCN1CC[C@@](C)(c2cccc(O)c2)[C@@H](C)C1
RESULT: 8.05
